- System: µP-hPSC colonies (H9) under mesoendoderm induction
- PROTOCOL_SUMMARY: µP-hPST: mesoendoderm pattern disruption in µP-hPSC colonies and two-step teratogen classification
- COND: two-step classification rule
MEASURED_ATTRIBUTE: Teratogenicity in µP-hPST

COMPOUND | Teratogenicity in µP-hPST
CC[C@H](C)C(=O)O[C@H]1C[C@@H](C)C=C2C=C[C@H](C)[C@H](CC[C@@H]3C[C@@H](O)CC(=O)O3)[C@H]21 [Lovastatin] | TER
Nc1nc2ncc(CNc3ccc(C(=O)N[C@@H](CCC(=O)O)C(=O)O)cc3)nc2c(=O)[nH]1 [Folic acid] | NON
COc1ccccc1Oc1c(NS(=O)(=O)c2ccc(C(C)(C)C)cc2)nc(-c2ncccn2)nc1OCCO [Bosentan] | TER
NC(=O)N1c2ccccc2C=Cc2ccccc21 [Carbamazepine] | TER
COc1ccc2nc([S@@+]([O-])Cc3ncc(C)c(OC)c3C)[nH]c2c1 [Esomeprazole] | NON

Then there is this compound:
Exercise: What does the data say about its Teratogenicity in µP-hPST? Entry: O=C1NC(=O)C(c2ccccc2)(c2ccccc2)N1 [Diphenylhydantoin]
Solution: TER

====

- Tested on: human embryonic cell line H9
- PROTOCOL_SUMMARY: Cytotoxicity assay (MTS), embryonic cytotoxicity
- Assay type: cell-based
- COND: H9 cells, 3 days, 25% inhibitory concentration
IC25H9 for assorted compounds
Use µg/mL as the unit, but write only the number.

COMPOUND | TEST_RESULT
O=C1Cc2cc(CCN3CCN(c4nsc5ccccc45)CC3)c(Cl)cc2N1 | 14.4
NS(=O)(=O)c1cc(C(=O)O)c(NCc2ccco2)cc1Cl [Furosemide] | 362
C[C@](N)(Cc1ccc(O)c(O)c1)C(=O)O | 23.2
NC(=O)N1c2ccccc2C=Cc2ccccc21 [Carbamazepine] | 21
CN(C)CCOC(c1ccccc1)c1ccccc1 [Diphenhydramine] | 2.4
Nc1nc2c(ncn2COCCO)c(=O)[nH]1 | 267

Now for another entry.
Exercise: Return reported IC25H9; argument: `O=C1NC(=O)C(c2ccccc2)(c2ccccc2)N1`
Solution: 56
